Origin of measurements: paper PMC7321218

biological target: human serum albumin (HSA) (Homo sapiens, UniProt P02768); construct: three analogous domains (I, II, and III) having amino acid residues of 1–195, 196–383, and 384–585; experiment: Steady-state fluorescence quenching of HSA; format: binding; settings: Ka (modified Stern–Volmer binding constant), 310 K
Sequence (P02768 25-609): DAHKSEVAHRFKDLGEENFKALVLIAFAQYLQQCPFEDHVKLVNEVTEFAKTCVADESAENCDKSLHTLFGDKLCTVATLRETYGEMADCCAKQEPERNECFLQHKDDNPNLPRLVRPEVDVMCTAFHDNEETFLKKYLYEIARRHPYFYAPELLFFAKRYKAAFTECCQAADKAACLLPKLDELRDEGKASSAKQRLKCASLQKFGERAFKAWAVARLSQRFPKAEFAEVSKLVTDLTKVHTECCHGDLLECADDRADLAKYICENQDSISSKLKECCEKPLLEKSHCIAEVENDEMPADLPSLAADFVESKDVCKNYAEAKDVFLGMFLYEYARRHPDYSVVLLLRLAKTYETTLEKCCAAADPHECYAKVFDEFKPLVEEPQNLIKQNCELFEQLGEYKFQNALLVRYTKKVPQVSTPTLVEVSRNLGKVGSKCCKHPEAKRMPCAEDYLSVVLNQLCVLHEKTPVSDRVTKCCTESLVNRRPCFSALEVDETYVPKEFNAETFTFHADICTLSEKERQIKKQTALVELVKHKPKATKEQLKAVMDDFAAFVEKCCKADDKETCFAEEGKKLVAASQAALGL
Answer each item with its documented Kd.
Please format your answer as a value with the unit trailing.

Examples with their reported Kd follow.
For Brc1ccc(Nc2n[n+](-c3ccccc3)c(/C=C/c3ccccc3)s2)cc1.[Cl-] the compound record lists Kd as 10.8 µM

The compound listed as Clc1ccc(Nc2n[n+](-c3ccccc3)c(/C=C/c3ccccc3)s2)cc1.[Cl-] shows Kd equal to 10.4 µM

Give Kd for each of the items listed below.
1. Cc1ccc(Nc2n[n+](-c3ccccc3)c(/C=C/c3ccccc3)s2)cc1.[Cl-]
2. COc1ccc(Nc2n[n+](-c3ccccc3)c(/C=C/c3ccccc3)s2)cc1.[Cl-]

result:
["13.7 µM", "12.1 µM"]

###

biological target: human serum albumin (HSA) (Homo sapiens); construct: three analogous domains (I, II, and III) having amino acid residues of 1–195, 196–383, and 384–585; assay: Steady-state fluorescence quenching of HSA; type: binding; details: 310 K
Would you mind telling me the reported KSV (Stern–Volmer quenching constant) of each entry?

Example entries begin here.
Lab note: COc1ccc(Nc2n[n+](-c3ccccc3)c(/C=C/c3ccccc3)s2)cc1.[Cl-] gave KSV (Stern–Volmer quenching constant) of 1.15 ± 0.03 × 10^5 M^−1

Short answer for Cc1ccc(Nc2n[n+](-c3ccccc3)c(/C=C/c3ccccc3)s2)cc1.[Cl-] : KSV (Stern–Volmer quenching constant) was 1.21 ± 0.03 × 10^5 M^−1

So, Clc1ccc(Nc2n[n+](-c3ccccc3)c(/C=C/c3ccccc3)s2)cc1.[Cl-] ? Its KSV (Stern–Volmer quenching constant) was 1.40 ± 0.03 × 10^5 M^−1

Then this molecule:
# molecule Brc1ccc(Nc2n[n+](-c3ccccc3)c(/C=C/c3ccccc3)s2)cc1.[Cl-] ; its KSV (Stern–Volmer quenching constant) = 1.60 ± 0.03 × 10^5 M^−1

###

target: human serum albumin (HSA) (Homo sapiens); construct: three analogous domains (I, II, and III) having amino acid residues of 1–195, 196–383, and 384–585; experiment: Steady-state fluorescence quenching of HSA; assay type: binding; details: 296 K
READOUT NAME: KSV (Stern–Volmer quenching constant)

I'm hoping you can list KSV (Stern–Volmer quenching constant) for every compound here, please.
1. Clc1ccc(Nc2n[n+](-c3ccccc3)c(/C=C/c3ccccc3)s2)cc1.[Cl-]
2. Brc1ccc(Nc2n[n+](-c3ccccc3)c(/C=C/c3ccccc3)s2)cc1.[Cl-]
3. COc1ccc(Nc2n[n+](-c3ccccc3)c(/C=C/c3ccccc3)s2)cc1.[Cl-]
4. Cc1ccc(Nc2n[n+](-c3ccccc3)c(/C=C/c3ccccc3)s2)cc1.[Cl-]

result:
1. 1.30 ± 0.03 × 10^5 M^−1
2. 1.45 ± 0.02 × 10^5 M^−1
3. 1.10 ± 0.02 × 10^5 M^−1
4. 1.19 ± 0.03 × 10^5 M^−1

###

test system: Jurkat cells; experiment: MTT cell viability assay, Jurkat cells; type: cell-based; settings: Homo sapiens, 72 h incubation
READOUT NAME: IC50 (µM)
One number for each entry, in µM.

Record for Brc1ccc(Nc2n[n+](-c3ccccc3)c(/C=C/c3ccccc3)s2)cc1.[Cl-] under target or system Jurkat cells: IC50 reported as 2.27

Take each entry in turn and give its IC50.
1. Cc1ccc(Nc2n[n+](-c3ccccc3)c(/C=C/c3ccccc3)s2)cc1.[Cl-]
2. Clc1ccc(Nc2n[n+](-c3ccccc3)c(/C=C/c3ccccc3)s2)cc1.[Cl-]
3. COc1ccc(Nc2n[n+](-c3ccccc3)c(/C=C/c3ccccc3)s2)cc1.[Cl-]

result:
[2.15, 5.6, 1.74]
